The following binders are shown together with reported fold increase over parent (IgG KD, comparative binding affinity) values.
# TARGET DESC: T1, cynomolgus MCSP D3 (cynomolgus)
# T1 construct: domain: D3; also called Cyno MCSP; cynomolgus homologue
# MEASUREMENT DESCRIPTION: ratio of ProteOn IgG KD against parental M4-3/ML2 IgG
Output spec: scalar in fold, unitless text.

Entry M4-3(A7)/ML2(E10) IgG (antibody, V domains shown, Human IgG1 format) VH: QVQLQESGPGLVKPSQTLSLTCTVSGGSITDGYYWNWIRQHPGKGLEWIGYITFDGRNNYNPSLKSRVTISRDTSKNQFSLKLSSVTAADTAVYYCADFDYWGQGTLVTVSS VL: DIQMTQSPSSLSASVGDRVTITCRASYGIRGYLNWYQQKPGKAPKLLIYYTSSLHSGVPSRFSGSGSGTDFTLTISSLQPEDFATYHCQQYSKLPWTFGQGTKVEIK ; fold increase over parent (IgG KD, comparative binding affinity) = 2.9

// fold increase over parent (IgG KD, comparative binding affinity) value for M4-3(A7)/ML2(G3) IgG (antibody, V domains shown, Human IgG1 format) VH: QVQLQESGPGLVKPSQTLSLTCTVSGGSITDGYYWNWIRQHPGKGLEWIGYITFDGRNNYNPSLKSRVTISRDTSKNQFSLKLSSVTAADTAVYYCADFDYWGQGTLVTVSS VL: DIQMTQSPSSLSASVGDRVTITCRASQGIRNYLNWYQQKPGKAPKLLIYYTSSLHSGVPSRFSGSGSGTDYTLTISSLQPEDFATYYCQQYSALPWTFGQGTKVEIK : 10

Measured fold increase over parent (IgG KD, comparative binding affinity) of M4-3/ML2 (E10) IgG (antibody, V domains shown, Human IgG1 format) VH: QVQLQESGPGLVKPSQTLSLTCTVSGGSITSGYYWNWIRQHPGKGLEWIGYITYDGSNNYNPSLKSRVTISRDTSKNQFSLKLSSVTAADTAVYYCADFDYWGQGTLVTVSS VL: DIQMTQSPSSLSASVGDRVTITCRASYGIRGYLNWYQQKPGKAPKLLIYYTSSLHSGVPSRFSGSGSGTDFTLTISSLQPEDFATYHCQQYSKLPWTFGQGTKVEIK : 1
